- TARGET_DESC: ZmDRIK1-K217-P492 (Zea mays)
- Construct: kinase domain, K217-P492
- Sequence (C0P4K9 1-514): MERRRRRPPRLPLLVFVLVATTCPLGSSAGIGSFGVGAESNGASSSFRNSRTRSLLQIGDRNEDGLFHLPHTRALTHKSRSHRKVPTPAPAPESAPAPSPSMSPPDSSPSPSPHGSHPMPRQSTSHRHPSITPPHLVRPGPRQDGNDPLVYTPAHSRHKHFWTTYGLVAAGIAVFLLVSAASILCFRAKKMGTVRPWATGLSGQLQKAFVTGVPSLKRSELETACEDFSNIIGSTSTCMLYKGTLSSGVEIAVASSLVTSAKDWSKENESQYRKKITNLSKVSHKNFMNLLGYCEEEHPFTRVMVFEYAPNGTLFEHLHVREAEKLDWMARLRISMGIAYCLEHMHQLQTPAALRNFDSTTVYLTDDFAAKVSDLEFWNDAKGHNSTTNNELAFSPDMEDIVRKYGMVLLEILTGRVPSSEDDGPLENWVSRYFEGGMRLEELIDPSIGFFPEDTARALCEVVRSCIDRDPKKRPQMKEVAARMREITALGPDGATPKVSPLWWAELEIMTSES
- MEASUREMENT_PROTOCOL: biochemical
- CONDITION_INFO: read-out: dTm B, sheet ZmDRIK1-K217-P492;; DSF, Boltzmann fit, 0.1% DMSO
# label = 1 (yes) if ΔTm at 10 µM < -1 °C else 0 (no)

As a guide, the following entries are already answered.
Field: below-cutoff. Rule: recorded ΔTm at 10 µM strictly less than -1 °C. Subject: `C=CCc1ccc(O)c(-c2ccc(O)c(CC=C)c2)c1` 1 (yes)

Report whether reported ΔTm at 10 µM is lower than -1 °C (strictly) for `COC[C@H]1OC(=O)c2coc3c2[C@@]1(C)C1=C(C3=O)[C@@H]2CCC(=O)[C@@]2(C)C[C@H]1OC(C)=O` 1 (yes)

Determine whether this molecule shows ΔTm at 10 µM lower than -1 °C (ties excluded): `O=C(NC[C@H](O)CO)c1ccncc1Nc1ccc(I)cc1F` 0 (no)

API: query returns whether the molecule falls strictly under -1 °C in ΔTm at 10 µM. Query: `C=CC(=O)N1CCC[C@@H](n2nc(-c3ccc(Oc4ccccc4)cc3)c3c(N)ncnc32)C1` 1 (yes)

Consider the molecule `CC(C)(C)NS(=O)(=O)c1cncc(-c2cc(F)c3nc(N)nn3c2)c1` . Is its ΔTm at 10 µM strictly less than -1 °C? 1 (yes)

---
Does `Cc1ccc(NC(=O)c2cccc(N(C)C)c2)cc1NC(=O)c1ccc(O)cc1` have ΔTm at 10 µM strictly under -1 °C? 0 (no)

Could you please tell me whether ΔTm at 10 µM recorded for `COc1cc2ncnc(Nc3cccc(Cl)c3)c2cc1OC` is less than -1 °C? 0 (no)

In plain terms, does `COCCOc1ccc2c(c1)ncn2-c1ccc2cccc(N3CCC(N)CC3)c2n1` come in under -1 °C for ΔTm at 10 µM? 0 (no)

ΔTm at 10 µM strictly < -1 °C for this molecule? `CC(C)CC(=O)Nc1n[nH]c2c1CN(C(=O)C1CCN(C)CC1)C2(C)C` 0 (no)

Find out if reported ΔTm at 10 µM for `N#Cc1c(NC(=O)c2cccc3ccccc23)sc2c1CCCC2` is less than -1 °C 1 (yes)

In plain terms, does `Cc1cn(-c2cc(NC(=O)c3ccc(C)c(Nc4nccc(-c5cccnc5)n4)c3)cc(C(F)(F)F)c2)cn1` come in under -1 °C for ΔTm at 10 µM? 1 (yes)

Strictly below -1 °C: is that where ΔTm at 10 µM of `COc1ccc(C(=O)Nc2sc3c(c2C(N)=O)CCCC3)cc1OC` sits? 0 (no)

Hello, I'm reviewing records and need to know if ΔTm at 10 µM of `Cc1cc(N2CCOCC2)cc2[nH]c(-c3c(NC[C@@H](O)c4cccc(Cl)c4)cc[nH]c3=O)nc12` is below -1 °C. Could you check? 1 (yes)

API: query returns whether the molecule falls strictly under -1 °C in ΔTm at 10 µM. Query: CCN(CC)CCCC(C)Nc1nc(C)cc(Nc2ccc3nc(C)cc(N)c3c2)n1 (centres unmarked) 0 (no)

Consider Cc1[nH]c(/C=C2\C(=O)Nc3ccccc32)c(C)c1CCC(=O)O [TSU-68 (SU6668)] . Does its ΔTm at 10 µM lie strictly below -1 °C? 1 (yes)
